system: LOX IMVI melanoma; experiment: NCI tumour cell line growth inhibition, 48 h; in the data active = GI50 below about 0.43 µM; inactive = the rest
Would you mind answering with one of these outcomes? active, inactive

Incoming: What is the recorded call for this compound in the test? CCSc1nc(N)c(C#N)c(-c2ccco2)c1C#N
Outgoing: inactive

Incoming: Please state the recorded outcome for this compound: CCN(CC)CCCC(C)Nc1c(-c2ccccc2)cnc2cc(Cl)ccc12 (centres undefined)
Outgoing: inactive

Incoming: What classification did O=C1CCC(N2C(=O)c3cccc(NCCCC4CCN(CCNC(=O)c5cc6c(o5)C(=O)c5ccccc5C6=O)CC4)c3C2=O)C(=O)N1 (centres undefined) end up with in this test?
Outgoing: active

Incoming: Please state the recorded outcome for this compound: O=C(Nc1ccccc1Cl)c1cccc(NC2=C(Cl)C(=O)N(Cc3ccccc3)C2=O)c1
Outgoing: inactive

Incoming: Assay outcome for COc1cccc(CC(C)=C(c2ccc(OCCCN(C)C)cc2)c2ccc(OCCCN(C)C)cc2)c1 : what was it?
Outgoing: inactive

Incoming: Please state the recorded outcome for this compound: O=C1/C(=C/c2cccc(Br)c2)COc2ccc(O)c(O)c21
Outgoing: inactive

Incoming: // param item: CCN1C(=O)N(CC)C2C1NN=c1s/c(=C\c3ccc[nH]3)c(=O)n12 (centres undefined) ; yields the recorded call
Outgoing: inactive

Incoming: Field: outcome | Entry: C=C1C(=O)O[C@H]2[C@H]1CC/C(CNC(=O)/C=C/c1ccccc1)=C\CC[C@@]1(C)O[C@@H]21
Outgoing: inactive

Incoming: Outcome? Cc1ccc(Sc2oc(-c3ccc(C)cc3)nc2[P+](c2ccccc2)(c2ccccc2)c2ccccc2)cc1
Outgoing: active
